Where do these numbers come from? They come from patent US5786328A.

Reported fraction of remaining proteolytic activity, plasmin is given for each of the following substances.
target: plasmin (Homo sapiens, UniProt P00747); construct: Human plasmin, S-2302, S-2251, and S-2366 were purchased from Kabi Vitrum (Sweden); purchased Kabi Vitrum (Sweden); assay: Specificity assay, fraction of remaining proteolytic activity; format: biochemical; details: 100 nM inhibitor; 32 nM enzyme
Sequence (P00747 97-580 limits assumed): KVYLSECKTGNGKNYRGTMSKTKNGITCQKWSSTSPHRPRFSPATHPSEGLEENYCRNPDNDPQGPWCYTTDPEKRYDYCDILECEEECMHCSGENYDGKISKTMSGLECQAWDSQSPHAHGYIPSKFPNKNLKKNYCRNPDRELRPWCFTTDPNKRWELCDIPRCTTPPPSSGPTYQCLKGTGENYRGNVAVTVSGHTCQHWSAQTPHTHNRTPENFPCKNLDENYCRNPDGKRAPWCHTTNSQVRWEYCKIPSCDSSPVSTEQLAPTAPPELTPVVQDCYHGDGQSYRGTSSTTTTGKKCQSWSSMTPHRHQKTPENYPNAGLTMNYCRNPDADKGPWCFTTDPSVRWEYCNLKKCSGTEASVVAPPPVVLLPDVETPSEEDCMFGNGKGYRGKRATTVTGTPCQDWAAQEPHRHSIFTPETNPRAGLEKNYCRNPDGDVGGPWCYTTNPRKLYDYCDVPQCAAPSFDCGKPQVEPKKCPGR
Sequence (P00747 581-810 limits assumed): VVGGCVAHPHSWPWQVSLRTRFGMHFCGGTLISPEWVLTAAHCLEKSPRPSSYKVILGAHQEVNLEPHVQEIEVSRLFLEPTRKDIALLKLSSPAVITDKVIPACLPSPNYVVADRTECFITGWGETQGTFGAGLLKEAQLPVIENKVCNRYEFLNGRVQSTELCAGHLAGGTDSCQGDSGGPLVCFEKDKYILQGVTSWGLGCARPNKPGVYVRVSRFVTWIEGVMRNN
QUANTITY: fraction of remaining proteolytic activity, plasmin

substance="KALI-46: APPI Kunitz domain mutant, R1 EGRCRASILR2 FR3 (SEQ ID NO: 33) (VREVCSEQAEEGRCRASILRWYFDVTEGKCAPFFYGGCGGNRNNFDTEEYCAAVCGSA)" quantitative_result=0.64
substance="KALI-13: APPI Kunitz domain mutant, R1 SGHCRAAIPR2 FR3 (SEQ ID NO: 1) (VREVCSEQAESGHCRAAIPRWYFDVTEGKCAPFFYGGCGGNRNNFDTEEYCAAVCGSA)" quantitative_result=0.65
substance="KALI-8: APPI Kunitz domain mutant, R1 LGHCRAAIPR2 FR3 (SEQ ID NO: 3) (VREVCSEQAELGHCRAAIPRWYFDVTEGKCAPFFYGGCGGNRNNFDTEEYCAAVCGSA)" quantitative_result=0.83
substance="KALI-48: APPI Kunitz domain mutant, R1 TGHCRAAIPR2 FR3 (SEQ ID NO: 2) (VREVCSEQAETGHCRAAIPRWYFDVTEGKCAPFFYGGCGGNRNNFDTEEYCAAVCGSA)" quantitative_result=0.23
substance="KALI-30: APPI Kunitz domain mutant, R1 EGHCRAAILR2 FR3 (SEQ ID NO: 5) (VREVCSEQAEEGHCRAAILRWYFDVTEGKCAPFFYGGCGGNRNNFDTEEYCAAVCGSA)" quantitative_result=0.53

---

Overview of recorded fraction of remaining proteolytic activity, Factor XIa for various substances
biological target: Factor XIa (Homo sapiens); construct: purchased Haematologic Technologies Inc. (Essex Jct., VT); experiment: Specificity assay, fraction of remaining proteolytic activity; type: biochemical; details: 100 nM inhibitor; […] enzyme
Sequence (P03951 19-387 limits assumed): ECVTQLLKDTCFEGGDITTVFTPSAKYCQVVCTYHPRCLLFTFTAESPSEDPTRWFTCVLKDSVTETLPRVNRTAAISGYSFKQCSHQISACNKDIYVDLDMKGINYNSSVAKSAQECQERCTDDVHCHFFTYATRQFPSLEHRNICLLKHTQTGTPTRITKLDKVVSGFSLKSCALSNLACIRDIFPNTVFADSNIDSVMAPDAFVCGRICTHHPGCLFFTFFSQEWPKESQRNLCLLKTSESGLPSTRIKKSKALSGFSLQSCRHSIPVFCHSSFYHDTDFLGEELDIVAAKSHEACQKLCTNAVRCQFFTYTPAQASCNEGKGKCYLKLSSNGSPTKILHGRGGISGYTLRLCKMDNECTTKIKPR
Sequence (P03951 388-625 limits assumed): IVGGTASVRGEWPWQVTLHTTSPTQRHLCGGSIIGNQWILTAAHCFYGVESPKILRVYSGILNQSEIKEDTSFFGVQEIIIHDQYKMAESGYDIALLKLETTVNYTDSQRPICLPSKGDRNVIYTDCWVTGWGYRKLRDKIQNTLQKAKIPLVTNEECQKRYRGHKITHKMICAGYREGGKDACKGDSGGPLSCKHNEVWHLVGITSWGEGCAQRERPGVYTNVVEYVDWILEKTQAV
QUANTITY: fraction of remaining proteolytic activity, Factor XIa

substance="KALI-30: APPI Kunitz domain mutant, R1 EGHCRAAILR2 FR3 (SEQ ID NO: 5) (VREVCSEQAEEGHCRAAILRWYFDVTEGKCAPFFYGGCGGNRNNFDTEEYCAAVCGSA)" quantitative_result=0.00
substance="KALI-46: APPI Kunitz domain mutant, R1 EGRCRASILR2 FR3 (SEQ ID NO: 33) (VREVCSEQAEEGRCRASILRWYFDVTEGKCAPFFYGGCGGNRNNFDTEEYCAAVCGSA)" quantitative_result=0.00
substance="KALI-13: APPI Kunitz domain mutant, R1 SGHCRAAIPR2 FR3 (SEQ ID NO: 1) (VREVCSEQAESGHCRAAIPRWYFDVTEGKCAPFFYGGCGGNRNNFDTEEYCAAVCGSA)" quantitative_result=0.01
substance="KALI-48: APPI Kunitz domain mutant, R1 TGHCRAAIPR2 FR3 (SEQ ID NO: 2) (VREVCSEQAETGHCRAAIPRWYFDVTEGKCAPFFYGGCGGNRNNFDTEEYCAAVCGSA)" quantitative_result=0.01
substance="KALI-8: APPI Kunitz domain mutant, R1 LGHCRAAIPR2 FR3 (SEQ ID NO: 3) (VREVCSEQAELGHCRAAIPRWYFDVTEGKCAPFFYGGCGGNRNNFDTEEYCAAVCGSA)" quantitative_result=0.00

---

Below, each entry is listed with its recorded fraction of remaining proteolytic activity, thrombin.
molecular target: thrombin (Homo sapiens); construct: purchased Haematologic Technologies Inc. (Essex Jct., VT); assay: Specificity assay, fraction of remaining proteolytic activity; format: biochemical; conditions: 100 nM inhibitor; 6.2 nM enzyme
QUANTITY: fraction of remaining proteolytic activity, thrombin

substance="KALI-13: APPI Kunitz domain mutant, R1 SGHCRAAIPR2 FR3 (SEQ ID NO: 1) (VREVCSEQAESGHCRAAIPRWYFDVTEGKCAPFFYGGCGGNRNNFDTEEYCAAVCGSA)" target_desc="thrombin (Homo sapiens)" result=0.96
substance="KALI-8: APPI Kunitz domain mutant, R1 LGHCRAAIPR2 FR3 (SEQ ID NO: 3) (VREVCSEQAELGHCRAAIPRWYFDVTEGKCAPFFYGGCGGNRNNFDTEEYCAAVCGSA)" target_desc="thrombin (Homo sapiens)" result=0.99
substance="KALI-46: APPI Kunitz domain mutant, R1 EGRCRASILR2 FR3 (SEQ ID NO: 33) (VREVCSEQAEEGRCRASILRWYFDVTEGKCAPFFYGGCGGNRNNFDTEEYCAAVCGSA)" target_desc="thrombin (Homo sapiens)" result=0.99
substance="KALI-48: APPI Kunitz domain mutant, R1 TGHCRAAIPR2 FR3 (SEQ ID NO: 2) (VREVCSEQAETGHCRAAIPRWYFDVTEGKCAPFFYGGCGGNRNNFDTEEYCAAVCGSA)" target_desc="thrombin (Homo sapiens)" result=0.99
substance="KALI-30: APPI Kunitz domain mutant, R1 EGHCRAAILR2 FR3 (SEQ ID NO: 5) (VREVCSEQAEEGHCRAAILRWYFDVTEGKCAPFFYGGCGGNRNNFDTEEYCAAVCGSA)" target_desc="thrombin (Homo sapiens)" result=1.00

---

// values below are reported fraction of remaining proteolytic activity, activated protein C
molecular target: activated protein C (Homo sapiens); construct: purchased Haematologic Technologies Inc. (Essex Jct., VT); assay: Specificity assay, fraction of remaining proteolytic activity; assay type: biochemical; conditions: 100 nM inhibitor; 7.6 nM enzyme
Sequence (P04070 43-197 limits assumed): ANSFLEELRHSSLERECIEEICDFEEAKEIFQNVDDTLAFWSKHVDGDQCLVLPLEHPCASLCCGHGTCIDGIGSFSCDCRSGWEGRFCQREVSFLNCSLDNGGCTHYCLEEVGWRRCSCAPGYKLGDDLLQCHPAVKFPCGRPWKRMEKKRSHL
Sequence (P04070 212-461 limits assumed): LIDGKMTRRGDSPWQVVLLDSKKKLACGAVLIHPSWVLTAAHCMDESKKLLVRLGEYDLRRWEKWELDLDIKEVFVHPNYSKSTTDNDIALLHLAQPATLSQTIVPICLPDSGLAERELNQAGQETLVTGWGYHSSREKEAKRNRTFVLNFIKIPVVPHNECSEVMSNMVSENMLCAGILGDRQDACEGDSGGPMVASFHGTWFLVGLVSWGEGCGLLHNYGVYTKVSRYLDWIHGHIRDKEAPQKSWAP
QUANTITY: fraction of remaining proteolytic activity, activated protein C

substance="KALI-46: APPI Kunitz domain mutant, R1 EGRCRASILR2 FR3 (SEQ ID NO: 33) (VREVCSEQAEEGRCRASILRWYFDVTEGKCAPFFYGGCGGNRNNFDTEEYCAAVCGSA)" target_desc="activated protein C (Homo sapiens)" result=0.83
substance="KALI-8: APPI Kunitz domain mutant, R1 LGHCRAAIPR2 FR3 (SEQ ID NO: 3) (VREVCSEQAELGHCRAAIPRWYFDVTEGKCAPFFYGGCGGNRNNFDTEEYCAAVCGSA)" target_desc="activated protein C (Homo sapiens)" result=0.89
substance="KALI-13: APPI Kunitz domain mutant, R1 SGHCRAAIPR2 FR3 (SEQ ID NO: 1) (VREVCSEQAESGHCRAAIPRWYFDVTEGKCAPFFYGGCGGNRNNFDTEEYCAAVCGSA)" target_desc="activated protein C (Homo sapiens)" result=0.90
substance="KALI-30: APPI Kunitz domain mutant, R1 EGHCRAAILR2 FR3 (SEQ ID NO: 5) (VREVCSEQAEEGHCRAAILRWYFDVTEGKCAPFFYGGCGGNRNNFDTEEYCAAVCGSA)" target_desc="activated protein C (Homo sapiens)" result=0.81
substance="KALI-48: APPI Kunitz domain mutant, R1 TGHCRAAIPR2 FR3 (SEQ ID NO: 2) (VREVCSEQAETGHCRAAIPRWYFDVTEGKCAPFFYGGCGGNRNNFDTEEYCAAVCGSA)" target_desc="activated protein C (Homo sapiens)" result=0.92

---

Target: Factor XIIa (Homo sapiens)
Construct: purchased Enzyme Research Laboratories, Inc. (South Bend, Ind)
Sequence (P00748 20-372 limits assumed): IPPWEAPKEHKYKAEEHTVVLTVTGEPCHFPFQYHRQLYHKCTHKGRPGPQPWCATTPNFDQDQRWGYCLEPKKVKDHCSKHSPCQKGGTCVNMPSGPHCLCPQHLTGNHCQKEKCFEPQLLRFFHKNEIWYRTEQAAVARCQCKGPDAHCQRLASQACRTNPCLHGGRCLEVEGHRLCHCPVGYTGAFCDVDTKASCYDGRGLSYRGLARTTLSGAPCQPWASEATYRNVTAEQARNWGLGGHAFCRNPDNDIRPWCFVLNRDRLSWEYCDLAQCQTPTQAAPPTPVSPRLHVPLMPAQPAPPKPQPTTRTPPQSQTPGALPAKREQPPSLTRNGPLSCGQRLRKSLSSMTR
Sequence (P00748 373-615 limits assumed): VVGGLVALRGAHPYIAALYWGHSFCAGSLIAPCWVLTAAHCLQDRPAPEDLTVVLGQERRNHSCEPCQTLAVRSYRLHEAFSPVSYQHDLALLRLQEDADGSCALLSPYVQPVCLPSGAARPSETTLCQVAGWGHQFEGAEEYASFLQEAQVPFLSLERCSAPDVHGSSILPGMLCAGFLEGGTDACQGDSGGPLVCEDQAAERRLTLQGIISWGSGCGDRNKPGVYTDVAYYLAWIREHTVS
Assay: Specificity assay, fraction of remaining proteolytic activity
Assay type: biochemical
Conditions: 100 nM inhibitor; 14 nM enzyme
QUANTITY: fraction of remaining proteolytic activity, Factor XIIa

substance="KALI-30: APPI Kunitz domain mutant, R1 EGHCRAAILR2 FR3 (SEQ ID NO: 5) (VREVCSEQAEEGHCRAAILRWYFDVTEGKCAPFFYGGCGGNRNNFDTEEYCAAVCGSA)" target_desc="Factor XIIa (Homo sapiens)" quantitative_result=0.92
substance="KALI-8: APPI Kunitz domain mutant, R1 LGHCRAAIPR2 FR3 (SEQ ID NO: 3) (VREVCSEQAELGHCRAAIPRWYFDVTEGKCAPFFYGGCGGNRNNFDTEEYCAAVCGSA)" target_desc="Factor XIIa (Homo sapiens)" quantitative_result=1.00
substance="KALI-46: APPI Kunitz domain mutant, R1 EGRCRASILR2 FR3 (SEQ ID NO: 33) (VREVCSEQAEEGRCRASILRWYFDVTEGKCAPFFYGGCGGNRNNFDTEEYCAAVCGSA)" target_desc="Factor XIIa (Homo sapiens)" quantitative_result=0.97
substance="KALI-13: APPI Kunitz domain mutant, R1 SGHCRAAIPR2 FR3 (SEQ ID NO: 1) (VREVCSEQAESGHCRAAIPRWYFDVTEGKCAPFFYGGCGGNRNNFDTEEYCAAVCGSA)" target_desc="Factor XIIa (Homo sapiens)" quantitative_result=1.00
substance="KALI-48: APPI Kunitz domain mutant, R1 TGHCRAAIPR2 FR3 (SEQ ID NO: 2) (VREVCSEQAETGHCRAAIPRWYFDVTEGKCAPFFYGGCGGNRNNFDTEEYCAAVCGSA)" target_desc="Factor XIIa (Homo sapiens)" quantitative_result=0.99
